Attribute: GI50
# System: LXFL 529
# protocolNotes: NCI tumour cell line growth inhibition, 48 h
Calls of active or inactive are those of the source. Rule as the data show it: active = GI50 up to about 1.1 µM and inactive = higher.
measurementKind: GI50

1) Cc1cn(C2CC(O)C(CO)O2)c(=O)n2nnnc12 (stereo unspecified) = > 100 µM (inactive)
2) CCOC(=O)Nc1nc2cc(Cn3cccc3)ccc2[nH]1 = 4.16 µM (inactive)
3) N#CC(C#N)C(c1ccccc1)c1ccccc1 = > 100 µM (inactive)
4) C=C1C(=O)O[C@H](c2ccoc2)C[C@@H]1[C@@]1(C)CCCC2(C)C(=O)OCC21 (stereo partly specified) = > 100 µM (inactive)
5) CCOC(=O)C(=O)Nc1ccccc1C(F)(F)F = > 100 µM (inactive)
6) CC1=C(C(=O)Nc2ccccc2C)C(/C=C/c2ccccc2)C(C(=O)Nc2ccccc2C)=C(C)N1 = > 100 µM (inactive)
